// reported EC50 per item
Experiment: viability of HCT116 lacking mutant beta-catenin – cell-based, human colon tumor, dose response (AID 1045);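 further: HCT116 colon tumor cells with beta catenin knocked out; cells exposed to compound for 60 hours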
Assay type: functional
The source made the active and inactive calls.

{"compound": "COc1cc(/C=C(/C#N)c2nc3ccccc3[nH]2)ccc1OCC(=O)Nc1ccccc1C(C)C", "endpointResult": "3.91 µM (active)"}
{"compound": "O=C1C(Cl)=C(N2CCCCC2)C(=O)C(Cl)=C1c1cnc(N2CCCCC2)s1", "endpointResult": "2.75 µM (active)"}
{"compound": "COC(=O)[C@@H]1[C@@H](C(=O)OC)C2(c3ccccc3-c3ccccc32)N(c2ccc(Cl)cc2)N1C#N", "endpointResult": "8.83 µM (active)"}
{"compound": "CCCSC(=N)N/N=C/c1ccccc1O", "endpointResult": "32.4 µM (active)"}
{"compound": "Cc1nn(C)c(C)c1NC(=O)CSc1nc(C2CC2)nc2c1cnn2-c1ccccc1", "endpointResult": "10.8 µM (active)"}
{"compound": "COc1ccc(C(=O)ON=C(N)Cc2ccc(Cl)cc2)cc1OC", "endpointResult": "19.1 µM (active)"}

Look up EC50 for this compound: CC1CCC(NC(=O)c2ccc(/C=C3\Oc4ccccc4N(C)C3=O)cc2)CC1 (configuration not stated)
26.7 µM (active)

----------
Target: Protein Tat (Human immunodeficiency virus type 1 group M subtype B (isolate HXB2)(HIV-1));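 further: tat binding to TAR RNA read out by fluorescence polarization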
Sequence (P04608 whole entry): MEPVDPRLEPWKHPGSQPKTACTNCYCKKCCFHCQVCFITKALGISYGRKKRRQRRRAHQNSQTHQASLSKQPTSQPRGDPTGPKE
Assay type: functional
Activity calls are given as the source filed them.
readoutType: IC50

{"molecule": "COc1cc(-c2ccc(Nc3ccccc3C(=O)O)c(OC)c2)ccc1Nc1ccccc1C(=O)O", "endpointResult": "12.7 µM (inconclusive)"}
{"molecule": "CCOC(=O)c1nn(-c2ccc(Cl)cc2Cl)c(=N)c(C#N)c1C", "endpointResult": "> 100 µM (active)"}
{"molecule": "CCC(c1nnnn1Cc1ccco1)N(Cc1ccccc1OC)Cc1cc2cc(C)ccc2nc1O (stereo unspecified)", "endpointResult": "> 100 µM (inconclusive)"}
{"molecule": "NS(=O)(=O)c1ccc(N2N=C(c3ccc(Br)cc3)CC2c2ccc(F)cc2)cc1 (stereo unspecified)", "endpointResult": "> 100 µM (active)"}
{"molecule": "O=C1C(Cl)=C(N2CCCCC2)C(=O)C(Cl)=C1c1cnc(N2CCCCC2)s1", "endpointResult": "1.99 µM (inconclusive)"}

Could you now look at the following molecule, please?
Look up IC50 for this molecule: CCc1ccc(CNc2ccc(O)cc2)cc1
25.4 µM (inconclusive)

----------
// reported AC50 per item
Experiment: P. falciparum Dd2 growth inhibitors, dose response, SYBR Green, cherry-picked samples (AID 1159567)
Assay type: functional, cell-based
Activity calls are given as the source filed them.

Below are worked cases with known answers.
{"molecule": "COc1cccc(-c2cccc(-c3nc(C(=O)Nc4ccc(-c5ccccc5)cc4)cc4c3[C@@H](CCO)N([S+]([O-])C(C)(C)C)C4)c2)c1 (stereo not given in full)", "AC50": "2.71 µM (active)"}
{"molecule": "CC(C)NC(=O)N1CCCCN2[C@H](CO)[C@@H](c3ccc(C#C[C@H](C)O)cc3)[C@@H]2C1", "AC50": "19.5 µM (active)"}
{"molecule": "COc1cccc(CN2[C@@H](CO)[C@H](c3ccccc3)C23CN(C(=O)C2CCCC2)C3)c1", "AC50": "5.77 µM (active)"}

Look up AC50 for this molecule: COc1ccc2c3c([nH]c2c1)[C@@H](CO)N(Cc1ccccc1Cl)CC31CCN(C(=O)C2CC2)CC1
5.82 µM (active)

Look up AC50 for this molecule: CNC[C@H]1Oc2ncc(-c3ccc(OC)cc3)cc2C(=O)N([C@H](C)CO)C[C@H]1C
7.75 µM (active)
